B1: glmS ribozyme (parent)
chain: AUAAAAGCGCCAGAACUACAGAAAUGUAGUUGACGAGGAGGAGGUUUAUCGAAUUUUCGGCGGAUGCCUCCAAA

Variants of: B1
protocolDescription: self-cleavage kobs at 160 uM GlcN6P; higher = faster cleavage; RNA array
assayConditions: with glucosamine-6-phosphate
Variants at the floor of the assay were thinned out.
measurementType: self-cleavage kobs at 160 uM GlcN6P

{"itemSequence": "AUAAAAGCGCCAUAACUACAGAAAUGUAGUUGACGAGGAGGGGGUUUAUCGAAUUUUCGGCGGAUGCCUCCAAA [G13U A42G]", "result": "0.000152 s⁻¹"}
{"itemSequence": "AUAAAAGCGCCAGAGCUACAGAAAUGUAGUUGACGAGGAAGAGGUUUAUCGAGUUUUCGGCGGAUGCCUCCAAA [A15G G40A A53G]", "result": "0.000772 s⁻¹"}
{"itemSequence": "AUAAAAGCGCCAGAACUACAGAAAUGUAGUCGACGAGGAGGAGGUUUAUCGAAAUUUCGGCGGAUGCCUCCAAA [U31C U54A]", "result": "0.000268 s⁻¹"}
{"itemSequence": "AUAAAGCCGCCAGAACUACAGAAAUGUAGUUGACGAGGAGGAGGUUUAUCGAAUUUUCGGCGGAUGCCUCCAAA [A6G G7C]", "result": "< 1e-05 s⁻¹"}
{"itemSequence": "AUAAAAGCGCCAGAACUACAGAAAUGUAGUUGACGAGGAGGAGGUUUAUCGAAUUUUCGGCGGAUGCCGACAAA [U69G C70A]", "result": "4.55e-05 s⁻¹"}
{"itemSequence": "AUAAAAGCCCCAGAACUACAGAAAUGUAGUUGACGAGGAGGAGGGUUAUCGAAUUUUCGGCGGAUGCCUCCAAA [G9C U45G]", "result": "< 1e-05 s⁻¹"}
{"itemSequence": "AUAAAAGCACCAGAACUACAGAAAUGUAGUUGACGAGGAGGAGGCUUAUCGAAUUUUCGGCGGAUGCCUCCAAA [G9A U45C]", "result": "< 1e-05 s⁻¹"}
{"itemSequence": "AUAAAAGCGCCAGAACUACAGAAAUGUAGUUGACGAGGAGGAGGUUUAUCGAAUUUUCGGUUGAUGCCUCCAAA [C61U G62U]", "result": "< 1e-05 s⁻¹"}
{"itemSequence": "AUAAAAGCGGCAAAACUACAGAAAUGUAGUAGACGAGGAGGAGGUUUAUAGAAUUUUCUGCGGAUGCCUCCAAA [C10G G13A U31A C50A G59U]", "result": "< 1e-05 s⁻¹"}
{"itemSequence": "AUAAAAGCGCCAGAACUACAGAAAUGUAGUUGAAGAGGAGGAGGUUUAUCGAAUUUGCGGCGGAUGCCUCCAAA [C34A U57G]", "result": "< 1e-05 s⁻¹"}
{"itemSequence": "AUAAAAGCUCCAGAACUACAGAAAUGUAGUUGACGAGGAGGAGGUUUUUCGAAUUUACGGCGGAUGCCUCCAAA [G9U A48U U57A]", "result": "< 1e-05 s⁻¹"}
{"itemSequence": "AUAAAAGCGCCAGAAGUACAGAAAUGUAGUUGACGAGGAGGAGGUUUAUCGAAUUUUCGGCGGAUGCCUCGAAA [C16G C71G]", "result": "6.73e-05 s⁻¹"}
{"itemSequence": "AUAAAAGCUCCAGAACUACAGAAAUGUAGUUGACGAGGAGGAGGUUUUUCGAAUUUUCGGCGGAUGGCUCCAAA [G9U A48U C67G]", "result": "< 1e-05 s⁻¹"}
{"itemSequence": "AUAAAAGCGCCAGAACUACAGAAAUGUAGUUGACGAGGAGGAGGUUUAUGAAAUUUUCUGCGGAUGCCUGCAAA [C50G G51A G59U C70G]", "result": "9.16e-05 s⁻¹"}
{"itemSequence": "AUAAAAGCGCCAGAACUACAGAAAUGUAGUUUACGAGGAGGAGGUUUAUCGAAUUUUCGCCGGAUGCCUCCAAA [G32U G60C]", "result": "< 1e-05 s⁻¹"}
{"itemSequence": "AUAAACGCGCCAGAACUACAGAAAUGUAGUUGACGCGGAGGAGGUUUAUCGAAUUUUCGGCGGAUGCCUCCAAA [A6C A36C]", "result": "< 1e-05 s⁻¹"}
{"itemSequence": "AUAAAAGCGCCAGAACUACAGAAAUGUAGAUGACGAGGAGGAGGUUUAUCGAAUAUUCGGCGGAUGCCUCCAAA [U30A U55A]", "result": "0.000501 s⁻¹"}
{"itemSequence": "AUAAAAGCGCCUGAACUACAGAAAUGUAGUUGACGAGGAGGAGGUUUAUCGAGUUUUCGGCGGAUGCCUCCAAA [A12U A53G]", "result": "0.00496 s⁻¹"}
{"itemSequence": "AUAAAAGCGCCAGCACUACAGAAAUGUAGUUGACGAGGUGGAGGUUUAUCGAAUUAUCGGCGUAUGCCUCCAAA [A14C A39U U56A G63U]", "result": "< 1e-05 s⁻¹"}
{"itemSequence": "AUAAAAGCGCCAGAACUACAGAAAUGUAGUUGACGAGGAGGAGGUUUAUCGAAUUUUCGGCGGACGCCUACAAA [U65C C70A]", "result": "< 1e-05 s⁻¹"}
{"itemSequence": "AUAAAAGGGCCAGAACUACAGAAAUGUAGUUGACGAGGAGGAGGUCUAUCGAAUUUUCGGCGGAUGCCUCCAAA [C8G U46C]", "result": "< 1e-05 s⁻¹"}
{"itemSequence": "AUAAAAGCGCCAGAAAUACAGAAAUGUAGUUGACGAGGAGGAGGUUUAUCGAAUUUUCGGCUGAUGCCUCCAAA [C16A G62U]", "result": "< 1e-05 s⁻¹"}
{"itemSequence": "AUAAAAGCGCCAGAACUACAGAAAUGUAGUUGACGAGGAGGAGGUUUAUCAAAUUUUCGGGGGAUGCCUCCAAA [G51A C61G]", "result": "< 1e-05 s⁻¹"}
{"itemSequence": "AUAAAAGCGCCAGAACUACAGAAAUGUAGUAGACGAGGAGGAUGUUUAUCGAAUUUUCGGCGGAUGCCUCCAAA [U31A G43U]", "result": "< 1e-05 s⁻¹"}
{"itemSequence": "AUAAAAGCGCCAGAACUACAGAAAUGUAGAUCACGAGGAGGAGGUUUAUCGAAUUUUCGGCAGAUGCCUCCAAA [U30A G32C G62A]", "result": "< 1e-05 s⁻¹"}
{"itemSequence": "AUAAAAGCGCCAGGACUACAGAAAUGUAGUUGACGAGGAGGAGGUUUAUCGAACUUUCGGCGGAUGCCUCCAAA [A14G U54C]", "result": "0.00536 s⁻¹"}
{"itemSequence": "AUAAAAGCGCCAGAACUACAGAAAUGUAGUUGACGAGGAGGAGGUUUGUCGAAUUUACGGCGGAUGCCUCCAAA [A48G U57A]", "result": "< 1e-05 s⁻¹"}
{"itemSequence": "AUAAAAGCGCCAGAACUACAGAAAUGUAGUUGACGAGGAGGAGGUUUAUCGUAUUUUCGGCGGAUGCCUCCAAA [A52U]", "result": "2.13e-05 s⁻¹"}
{"itemSequence": "AUAAAAGCGCCAAAACUACAGAAAUGUAGUUAACGAGGAGGAGGUUUAUCGAAUUUUCGGCGGAUGCCUCCAAA [G13A G32A]", "result": "0.000204 s⁻¹"}
{"itemSequence": "AUAAAAGCGCCAAAACUACAGAAAUGUAGUUGACGAGGAGGAGGCUUAUCGAAUUUUCGGCGGAUGCCUCCAAA [G13A U45C]", "result": "< 1e-05 s⁻¹"}
{"itemSequence": "AUAAAAGCGCCAGAACUACAGAAAUGUAGUUGACGAGGAGGAGGUUUAUCGAAUUUUCCGCAGAUGCCUCCAAA [G59C G62A]", "result": "< 1e-05 s⁻¹"}
{"itemSequence": "AUAAAAGCGCCAGAAUUACAGAAAUGUAGAUGACGAGGAGGAGGUUUAUCGAAUUUUCGGCGGAUGCCUCCAAA [C16U U30A]", "result": "0.000131 s⁻¹"}
{"itemSequence": "AUAAAAGCGCCAGAAAUACAGAAAUGUAGUUGACGAGGAGGAGGUUUAUCGAAUUUUCGGCGGGUGCCUCCAAA [C16A A64G]", "result": "9.99e-05 s⁻¹"}
{"itemSequence": "AUAAAAGCGCCAGAACUACAGAAAUGUAGUUGAAGAGGAGGAGGUUUAUCGAAUUUUCGGCGGAUUCCUCCAAA [C34A G66U]", "result": "< 1e-05 s⁻¹"}
{"itemSequence": "AUAAAAGCGCCAGAACUACAGAAAUGUAGUUGCCGAGGAGAAGGUUUAUCGAAUUUUCGGCGGAUGCCUCCAAA [A33C G41A]", "result": "< 1e-05 s⁻¹"}
{"itemSequence": "AUAAAAGCGGCAGUACUACAGAAAUGUAGUUGACGAGGAGGUGGUUUAUCGAAUUUUCGCCGGAUGGCUCCAAA [C10G A14U A42U G60C C67G]", "result": "< 1e-05 s⁻¹"}
{"itemSequence": "AUAAAAGCGCCAGAACUACAGAAAUGUAGUUGACGAGGAGGAGGUUUAUCGAAUUUUGGGCGGAUUCCUCCAAA [C58G G66U]", "result": "< 1e-05 s⁻¹"}
{"itemSequence": "AUAAAAGCGCCAGAACUACAGAAAUGUAGUUGAUGAGGAGGAGGUUUAUCGAAUUUCCGGCGGAUGCCUCCAAA [C34U U57C]", "result": "< 1e-05 s⁻¹"}
{"itemSequence": "AUAAAAGCGCCAGAACUACAGAAAUGUAGUUGACGAGGAGGAGGUUUAUCGAAUUUUCGGAGGAUGUCUCCAAA [C61A C67U]", "result": "2.79e-05 s⁻¹"}
